tested on: biotinyl-Val-oxazolone; test: self-aminoacylation, catalytic enhancement (BVO) (fold over background); higher = more active; k-Seq, kA / k0A0; sequences stand for … in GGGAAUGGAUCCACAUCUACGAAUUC…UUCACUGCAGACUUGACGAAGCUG
Fewer inactive variants are shown than the library holds.
Answer not met if self-aminoacylation is under 1, and met if it is 1 or more.

Sequence text | Qualitative label
CUACUUAAAACAGUCGGUCUG [Fam1A.1 aminoacylation ribozyme variant] | not met
CUACUUCAAAUAAUCAGUCUG [Fam1A.1 aminoacylation ribozyme variant] | not met
AACUUUGCUAAUGGUCGCAAG [Fam3.1 aminoacylation ribozyme variant] | met
AUUACCCUCGUCAUCGAGUGU [Fam2.1 aminoacylation ribozyme variant] | met
AUUAAGCUGGUCAUCGAGUGA [Fam2.1 aminoacylation ribozyme variant] | met
CCACACUGCAAGCAAUCGGUG [Fam1B.1 aminoacylation ribozyme variant] | met
CCACACUGCAAGCAAUCGGCC [Fam1B.1 aminoacylation ribozyme variant] | met
AUUACCCUGGUCAUCAUGUGA [Fam2.1 aminoacylation ribozyme variant] | met

###

// reported self-aminoacylation per item
tested on: biotinyl-Phe-oxazolone; experiment: self-aminoacylation, catalytic enhancement (BFO) (fold over background); higher = more active; k-Seq, kA / k0A0; sequences stand for … in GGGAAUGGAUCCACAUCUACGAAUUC…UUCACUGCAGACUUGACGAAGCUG
Variants at the floor of the assay were thinned out.
Parameter measured: self-aminoacylation

Sequence text | Parameter measured | Measured
AUUACCCUGGUCCUAGAGUGA [Fam2.1 aminoacylation ribozyme variant] | self-aminoacylation | 45.8
ACUCACCUAUGUCAUCGGGUG [Fam2.2 aminoacylation ribozyme variant] | self-aminoacylation | 33.4
AUUUCCCUGGUCAUCGCGUGA [Fam2.1 aminoacylation ribozyme variant] | self-aminoacylation | 157
AUUACCCUAGUCCUCGAGUGA [Fam2.1 aminoacylation ribozyme variant] | self-aminoacylation | 15.9
AUAACCCUGGUUAUCGAGUGA [Fam2.1 aminoacylation ribozyme variant] | self-aminoacylation | 38.8

###

test system: biotinyl-Val-oxazolone; test: self-aminoacylation, catalytic enhancement (BVO) (fold over background); higher = more active; k-Seq, kA / k0A0; sequences stand for … in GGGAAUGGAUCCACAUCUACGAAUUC…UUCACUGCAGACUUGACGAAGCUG
Fewer inactive variants are shown than the library holds.
Label scheme, based on self-aminoacylation: lower bin = under 0.8, middle bin = from 0.8 up to 3, upper bin = 3 and over

Sequence text | Qualitative label
AUUACCAGGGUCAUCGAGUGA [Fam2.1 aminoacylation ribozyme variant] | upper bin
AUUCAUCUAGGCCAUCGGGUG [Fam2.2 aminoacylation ribozyme variant] | middle bin
AAGUUUGCCAAUAGUUGCAAG [Fam3.1 aminoacylation ribozyme variant] | middle bin
ACUCACCUAGGUGAUCGGGUG [Fam2.2 aminoacylation ribozyme variant] | upper bin
CCACACUUUAAGCAAUGGGUC [Fam1B.1 aminoacylation ribozyme variant] | lower bin
AUUGACCCAGGUCAUCGGGUG [Fam2.2 aminoacylation ribozyme variant] | upper bin
AUUACCCGGGUCAUCUAGUGA [Fam2.1 aminoacylation ribozyme variant] | upper bin
CCACACUUCAAGUAAUGGGUC [Fam1B.1 aminoacylation ribozyme variant] | lower bin
CCACACAUCAAGAAAUCGGUC [Fam1B.1 aminoacylation ribozyme variant] | lower bin
